# assayed_target: wild type CH1-CH3 Fc fusion protein displayed on yeast (pYD-CH1) (human)
# procedure_details: FACS titration 1.4 to 0.0006 µM on yeast-displayed Fc, MFI, nonlinear regression
reported_property: Kd (nM)
Answers are plain numbers, in nM.

For record soluble FcγRIIIA tetrameric complex (biotinylated FcγRIIIA-AVITAG on streptavidin-phycoerythrin) (from UniProt P08637 17-203) (receptor) the listed Kd is 6
